tested on: MRC-5 cells; test: Resazurin cytotoxicity, dark and after white light projector irradiation (>600 nm), MRC-5; format: cell-based, human; settings: MRC-5 non-cancerous fibroblast; 4 h incubation in the dark; read-out: IC50 MRC-5 Dark
Metric Name: IC50 (µM)

[
  {
    "Compound": "N.N.[Cl][Pt][Cl] [cisplatin, Cis-[PtCl2(NH3)2]]",
    "Units Of Measure": "µM",
    "Number": 5.4
  }
]

###

tested on: A2780 cells; test: Resazurin cytotoxicity, dark and after white light projector irradiation (>600 nm), A2780; type: cell-based, human; conditions: 4 h incubation in the dark, further 72 h incubation, read-out: IC50 A2780 Dark
pIC50: −log10 of the molar value.
Metric Name: pIC50

[
  {
    "Molecule": "N.N.[Cl][Pt][Cl] [cisplatin, Cis-[PtCl2(NH3)2]]",
    "Number": 5.55
  }
]

###

tested on: HeLa cells; experiment: Resazurin cytotoxicity, dark and after white light projector irradiation (>600 nm), HeLa; assay type: cell-based, human; conditions: 4 h incubation, white light projector cutoff below 600 nm, 5.8 mW cm^−2, 6.96 J cm^−2, further 72 h, read-out: IC50 HeLa Light
pIC50: −log10 of the molar value.

[
  {
    "Compound": "N.N.[Cl][Pt][Cl] [cisplatin, Cis-[PtCl2(NH3)2]]",
    "Study System": "HeLa cells",
    "pIC50": 5.77
  }
]

Cited source for all entries: paper PMC9455738
